Target: TPM3-TRKA fusion protein (Homo sapiens)
Construct: The resulted chimeric proteins always retain the kinase domain of TRK proteins; TPM3 (fusion partner, N-terminal part of tropomyosin alpha-3, P06753); endogenous in cells; host or cells: KM12 colon cancer cells; the other entry of the earlier key: TPM3 (P06753, Tropomyosin alpha-3 chain)
Sequence (P04629 with tags, fused parts or gaps): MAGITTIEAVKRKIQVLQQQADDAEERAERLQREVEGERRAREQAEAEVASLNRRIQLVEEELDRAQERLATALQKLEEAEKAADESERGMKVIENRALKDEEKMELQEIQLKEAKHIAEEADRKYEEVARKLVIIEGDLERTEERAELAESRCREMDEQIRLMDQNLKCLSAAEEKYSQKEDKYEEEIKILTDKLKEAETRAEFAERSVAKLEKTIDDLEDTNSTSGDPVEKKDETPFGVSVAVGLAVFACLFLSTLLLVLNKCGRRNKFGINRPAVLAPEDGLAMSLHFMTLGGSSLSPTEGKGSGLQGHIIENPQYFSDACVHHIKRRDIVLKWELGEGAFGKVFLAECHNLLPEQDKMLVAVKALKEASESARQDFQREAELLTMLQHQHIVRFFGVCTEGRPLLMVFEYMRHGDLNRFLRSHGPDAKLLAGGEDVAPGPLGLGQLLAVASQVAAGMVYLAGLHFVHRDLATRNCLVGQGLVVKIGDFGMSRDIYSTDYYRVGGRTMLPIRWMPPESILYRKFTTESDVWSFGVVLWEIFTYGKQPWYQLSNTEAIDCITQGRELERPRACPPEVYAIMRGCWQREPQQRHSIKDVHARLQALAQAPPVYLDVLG
Experiment: TPM3-TRKA fusion protein levels in KM12 cells (Western blot)
Type: cell-based
Conditions: 16 h; TPM3-TRKA degradation in KM12 cells at 10 nM compound, category of percentage degradation; read-out: Degradation (at 10 nM)
ASSAY METRIC: percent degradation of TPM3-TRKA protein at 0.01 µM

input: Would you mind telling me what percent degradation of TPM3-TRKA protein at 0.01 µM value was observed for O=C1CCC(N2C(=O)c3ccc(CN4CCC(N5CCN(c6ccc(C(=O)Nc7n[nH]c8ccc(Cc9cc(F)cc(F)c9)cc78)c(NC7CCOCC7)c6)CC5)C4)cc3C2=O)C(=O)N1 (centres unmarked) ?
output: > 80%

input: Given the entry O=C1CCC(N2Cc3cc(NCC4CN(c5cccc(-c6cnc7ccc(N8CCC[C@@H]8c8cccc(F)c8)nn67)n5)C4)ccc3C2=O)C(=O)N1 (some centres unmarked) , report its measured percent degradation of TPM3-TRKA protein at 0.01 µM.
output: 50 to 80%

input: // lookup percent degradation of TPM3-TRKA protein at 0.01 µM for O=C1CCC(N2C(=O)c3ccc(NCCCC(=O)N4CCN(c5ccc(C(=O)Nc6n[nH]c7ccc(Cc8cc(F)cc(F)c8)cc67)c(NC6CCOCC6)c5)CC4)cc3C2=O)C(=O)N1 (centres unmarked)
output: > 80%

input: // percent degradation of TPM3-TRKA protein at 0.01 µM lookup, key: O=C1CCC(N2C(=O)c3ccc(N4CC5(C4)CN(C4CCN(c6ccc(C(=O)Nc7n[nH]c8ccc(Cc9cc(F)cc(F)c9)cc78)c(NC7CCOCC7)c6)CC4)C5)cc3C2=O)C(=O)N1 (centres unmarked)
output: > 80%

input: I am curious: what percent degradation of TPM3-TRKA protein at 0.01 µM value has been reported for O=C(CN1CCN(c2ccc(C(=O)Nc3n[nH]c4ccc(Cc5cc(F)cc(F)c5)cc34)c(NC3CCOCC3)c2)CC1)NCCOCCOCCNc1cccc2c1C(=O)N(C1CCC(=O)NC1=O)C2=O (centres unmarked) ?
output: > 80%

The measured values listed here are drawn from patent US12410171B2.
